# SYSTEM NAME: recombinant human LTA4 hydrolase (rhLTA4H) (Homo sapiens)
# Construct: made in house; host or cells: Spodoptera frugiperda (Sf-9) cells, baculovirus (pFastBac1)
# Sequence (P09960 whole entry): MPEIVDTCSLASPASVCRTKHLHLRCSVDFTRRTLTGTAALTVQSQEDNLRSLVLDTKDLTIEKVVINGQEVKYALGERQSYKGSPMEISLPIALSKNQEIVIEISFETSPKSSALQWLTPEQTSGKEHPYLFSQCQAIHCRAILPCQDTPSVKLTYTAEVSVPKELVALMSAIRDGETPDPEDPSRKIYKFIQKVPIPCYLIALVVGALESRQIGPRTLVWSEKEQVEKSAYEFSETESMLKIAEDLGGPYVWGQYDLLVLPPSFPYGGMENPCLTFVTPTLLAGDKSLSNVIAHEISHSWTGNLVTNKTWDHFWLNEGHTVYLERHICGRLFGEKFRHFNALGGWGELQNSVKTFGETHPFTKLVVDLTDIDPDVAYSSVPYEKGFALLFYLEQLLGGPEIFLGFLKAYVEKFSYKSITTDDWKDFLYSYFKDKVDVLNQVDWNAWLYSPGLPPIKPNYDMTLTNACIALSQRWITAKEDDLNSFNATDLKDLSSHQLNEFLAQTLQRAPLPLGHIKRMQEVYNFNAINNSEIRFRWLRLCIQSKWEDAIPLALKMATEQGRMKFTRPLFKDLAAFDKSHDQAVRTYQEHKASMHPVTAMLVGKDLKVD
# TEST DETAILS: Recombinant human LTA4 hydrolase assay for LTA4 hydrolase inhibitor activity
# Type: biochemical
# CONDITION CONTEXT: rhLTA4H, LTB4 by immunoassay; single determination or average of two or more; mark after value = form tested: ′ free base, ″ hydrochloride, ^ formate; read-out: IC50
# Experimental: Assay 1: Recombinant Human LTA4 Hydrolase Assay for LTA4 Hydrolase Inhibitor Activity Compounds of the present invention were tested for LTA4 hydrolase inhibitor activity against recombinant human LTA4 hydrolase (rhLTA4H). Vectors were prepared and used to express rhLTA4H essentially as follows: LTA4 hydrolase encoding DNA was amplified by polymerase chain reaction (PCR) using a human placental cDNA library as a template. […]
Structures can show the parent of a compound that is named as a salt.
ENDPOINT NAME: IC50 (nM)
The reply should contain only the number, in nM.

Here are 4 compounds together with their reported answers.
CC(=O)N[C@H]1C[C@H]2CC[C@@H](C1)N2Cc1cc2ccc(Oc3nc4ncccc4s3)cc2s1: 3
CC(=O)N[C@@H]1C[C@H]2CC[C@@H](C1)N2Cc1cc2ccc(Oc3nc4ncccc4s3)cc2o1: 7
O=C1Cc2ccc(Cl)cc2N1Cc1coc2cc(Oc3nc4ncccc4s3)ccc12: 32
FC1CCN(Cc2coc3cc(Oc4nc5ncccc5s4)ccc23)CC1 [Example 270, formate]: 26

Request: Entry CC(=O)NC1CCN(Cc2coc3cc(Oc4nc5ncc(F)cc5s4)ccc23)CC1 [Example 255, formate] has what IC50?
Response: 31

Request: Entry "CC(=O)N1C[C@H]2CC[C@@H](C1)N2Cc1cc2cc(Oc3nc4cnccc4s3)ccc2o1" has what IC50?
Response: 147

Request: Entry "CC(=O)N[C@H]1C[C@H]2CC[C@@H](C1)N2Cc1cc2cc(Oc3nc4c(F)cccc4s3)ccc2o1" has what IC50?
Response: 17

Request: Entry "O=C(c1ccccc1)C1CCN(C(=O)c2coc3cc(Oc4nc5ncccc5s4)ccc23)CC1" has what IC50?
Response: 150

Request: Entry CC(=O)NC1CCN(Cc2coc3cc(Oc4nc5nccnc5s4)ccc23)CC1 [Example 253, formate] has what IC50?
Response: 39

Request: Entry "CC(=O)N[C@H]1C[C@@H]2C[C@H]1CN2Cc1coc2cc(Oc3nc4ncccc4s3)ccc12" has what IC50?
Response: 1

Request: Entry "CCn1c(CN2CCCCC2)cc2cc(Oc3nc4ccccc4s3)ccc21" has what IC50?
Response: 382

Request: Entry "O=C(O)C1CCN(CCc2c[nH]c3ccc(Oc4nc5ccccc5s4)cc23)CC1" has what IC50?
Response: 3460

Request: Entry CS(=O)(=O)NC1CCN(Cc2cc3ccc(Oc4nc5ncccc5s4)cc3o2)C1 (stereo not drawn) [Example 128, formate] has what IC50?
Response: 84
